Origin of values: the supplement of paper PMC10567573

Catalogue of variants with associated protein stability index
B1: FANCE (parent)
chain: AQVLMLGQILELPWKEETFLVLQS

# Variants of: B1
# test_method_notes: protein stability index of a GFP-peptide fusion (GPS, HEK-293T) (PSI 1-6); higher = more stable;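 note: lentivirally expressed fusions sorted by FACS into six bins by GFP to DsRed ratio, PSI derived from sequencing read proportions per bin multiplied by bin number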
# applied_conditions: c terminus: a fixed tail appended
Give a plain numeric answer without units written out.

Recorded results for 8 variants are shown here.
AQVLMLGQIDELPWKEETFLVLQS [L10D] | 1.78
AQVLGLGQILELPWKEETFLVLQS [M5G] | 1.05
AQVLMLGQILELPWKEETFRVLQS [L20R] | 2.61
AQVLMLGQILELPWKEETFLVVQS [L22V] | 1.7
AQVLMLGQILELPSKEETFLVLQS [W14S] | 3.07
AQVLMLGQILELPWKEETFLALQS [V21A] | 3.08
AQVLMCGQILELPWKEETFLVLQS [L6C] | 3.67
AQVLMLGQILELPWKEETFLVKQS [L22K] | 2.14

Q. State its protein stability index: AQVLMLGQILELPWKEETFLDLQS [V21D]
A. 2.08

Q. Dear colleague, please send me the reported protein stability index for ADVLMLGQILELPWKEETFLVLQS [Q2D] when you can.
A. 2

Q. Give the value of protein stability index reported for the following: AQVLMLGQILELPWKEETFLFLQS [V21F]
A. 2.56

Q. In one line, give reported protein stability index of the entry AQVLMLGQILETPWKEETFLVLQS [L12T] .
A. 2.91

Q. Output protein stability index of AQVLMLGQILEEPWKEETFLVLQS [L12E]
A. 2.39

Q. Give the reported protein stability index for this variant. AQVLMLGQILELPEKEETFLVLQS [W14E]
A. 2.01
